Reference for the values: patent US20230114728A1

TEST DETAILS: Bocillin-FL fluorescence polarization competition binding assay, A. baumannii PBP3
TEST SETTINGS: fluorescence polarization competition binding assay using Bocillin-FL; column 3; read-out: 4. baumannii PBP1a Potency
Excerpt: Example I: Experimental Method for Penicillin-Binding Protein Binding Assays with Bocillin-FL Via Fluorescence Polarization […]
pEC50: −log10 of the molar value.
# Lookup of reported pEC50 keyed by entry

COMPOUND	PROPERTY LABEL	OBSERVED
CCN1CCN(C(=O)NC(C(=O)N[C@H]2Cc3cccc(C(=O)O)c3OB2O)c2ccc(O)c(NC(=O)c3ccc(O)c(O)c3Cl)c2)C(=O)C1=O (some centres unmarked)	pEC50	> 5.00
CC(C)(C)[C@@H](NC(=O)N1CCN(CCNC(=O)c2c(F)cc(O)c(O)c2Cl)C(=O)C1=O)C(=O)N[C@H]1Cc2ccc(F)c(C(=O)O)c2OB1O	pEC50	> 5.00
NCCN1CCN(C(=O)N[C@H](C(=O)N[C@H]2Cc3cccc(C(=O)O)c3OB2O)c2c(F)cc(O)cc2F)C(=O)C1=O (single isomer, unassigned)	pEC50	< 4.00
NS(=O)(=O)Nc1cccc(C(NC(=O)N2CCN(Cc3c(F)cc(O)c(O)c3Cl)C(=O)C2=O)C(=O)N[C@H]2Cc3cccc(C(=O)O)c3OB2O)c1 (some centres unmarked)	pEC50	> 5.00
CS(=O)(=O)N1CCN(C(=O)N[C@@H](C(=O)N[C@H]2Cc3ccc(F)c(C(=O)O)c3OB2O)c2cc(F)c(O)c(O)c2Cl)C1=O (single isomer, unassigned)	pEC50	4.52 to 5.00
NC1(CN2CCN(C(=O)N[C@@H](C(=O)N[C@H]3Cc4ccc(F)c(C(=O)O)c4OB3O)c3cc(F)c(O)c(O)c3Cl)C(=O)C2=O)CC1 (single isomer, unassigned)	pEC50	> 5.00

Next compound, pEC50 to be filled in.
Q: Using the record for O=C(Nc1ccc(O)c(O)c1Cl)NC(C(=O)N[C@H]1Cc2ccc(F)c(C(=O)O)c2OB1O)c1ncc(O)cc1F (some centres unmarked) , report its pEC50.
Result: 4.00 to 4.52
